Every entry's value here was drawn from patent US20240174690A1.

Target: CYP3A4 (Homo sapiens (Human), UniProt P08684)
Sequence (P08684 whole entry): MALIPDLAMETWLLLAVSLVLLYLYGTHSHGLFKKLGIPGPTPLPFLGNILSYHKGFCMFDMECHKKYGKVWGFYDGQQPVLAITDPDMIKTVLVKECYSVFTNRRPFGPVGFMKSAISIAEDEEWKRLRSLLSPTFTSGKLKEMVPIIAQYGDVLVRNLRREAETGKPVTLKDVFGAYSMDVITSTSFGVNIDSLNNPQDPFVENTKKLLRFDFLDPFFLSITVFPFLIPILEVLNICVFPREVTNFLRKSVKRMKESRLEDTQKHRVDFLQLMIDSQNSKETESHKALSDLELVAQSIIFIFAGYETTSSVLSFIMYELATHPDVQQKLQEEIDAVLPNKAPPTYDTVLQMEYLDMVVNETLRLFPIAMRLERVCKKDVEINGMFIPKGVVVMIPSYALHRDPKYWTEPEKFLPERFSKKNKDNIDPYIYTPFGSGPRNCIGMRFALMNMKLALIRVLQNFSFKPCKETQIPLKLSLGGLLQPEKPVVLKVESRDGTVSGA
Assay: Mechanism based inhibition of CYP3A4 assay (MBI 3A4)
Assay type: in vitro ADME
Conditions: hydroxy-midazolam formation after 30 min vs 0 min preincubation, 25 uM, human liver microsomes
Quick reference: MBI 3A4 of the listed items.
Answer format: numeric, % implied, no suffix.

- TEST SMILES: "C[C@H](Oc1cc(N2C[C@H](C)N[C@@H](C)C2)nc(-c2noc3c2CCC[C@@]32CCCc3sc(N)c(C#N)c32)n1)[C@@H]1CCCN1C"
  MEASURED ENDPOINT: "MBI 3A4"
  REPORTED VALUE: 73
- TEST SMILES: "C[C@H](Oc1cc(-n2ccc(Br)n2)nc(-c2noc3c2CCC[C@@]32CCCc3sc(N)c(C#N)c32)n1)[C@@H]1CCCN1C"
  MEASURED ENDPOINT: "MBI 3A4"
  REPORTED VALUE: 67
- TEST SMILES: "C[C@H](Oc1cc(-n2cncc3ccnc2-3)nc(-c2noc3c2CCC[C@@]32CCCc3sc(N)c(C#N)c32)n1)[C@@H]1CCCN1C"
  MEASURED ENDPOINT: "MBI 3A4"
  REPORTED VALUE: 79
- TEST SMILES: "C[C@H](Oc1cc(-n2cnc(C(=O)N(C)C)c2)nc(-c2noc3c2CCC[C@@]32CCCc3sc(N)c(C#N)c32)n1)[C@@H]1CCCN1C"
  MEASURED ENDPOINT: "MBI 3A4"
  REPORTED VALUE: 56
- TEST SMILES: "C[C@H](Oc1cc(-c2cnsc2)nc(-c2onc3c2CCC[C@@]32CCCc3sc(N)c(C#N)c32)n1)[C@@H]1CCCN1C"
  MEASURED ENDPOINT: "MBI 3A4"
  REPORTED VALUE: 50

As a next step, examine the compound that follows.
Input line: Given the compound `C[C@H](Oc1cc(-n2ccc(C(=O)NC3COC3)n2)nc(-c2noc3c2CCC[C@@]32CCCc3sc(N)c(C#N)c32)n1)[C@@H]1CCCN1C` , what is its reported MBI 3A4?
Output line: 77
